Catalogue of EC50 (STAT5, NK92) values
# target.of.assay: T1, hu-IL-2R (human, UniProt P14784 27-551; P31785 23-369)
# T1 sequence (looked up) 1: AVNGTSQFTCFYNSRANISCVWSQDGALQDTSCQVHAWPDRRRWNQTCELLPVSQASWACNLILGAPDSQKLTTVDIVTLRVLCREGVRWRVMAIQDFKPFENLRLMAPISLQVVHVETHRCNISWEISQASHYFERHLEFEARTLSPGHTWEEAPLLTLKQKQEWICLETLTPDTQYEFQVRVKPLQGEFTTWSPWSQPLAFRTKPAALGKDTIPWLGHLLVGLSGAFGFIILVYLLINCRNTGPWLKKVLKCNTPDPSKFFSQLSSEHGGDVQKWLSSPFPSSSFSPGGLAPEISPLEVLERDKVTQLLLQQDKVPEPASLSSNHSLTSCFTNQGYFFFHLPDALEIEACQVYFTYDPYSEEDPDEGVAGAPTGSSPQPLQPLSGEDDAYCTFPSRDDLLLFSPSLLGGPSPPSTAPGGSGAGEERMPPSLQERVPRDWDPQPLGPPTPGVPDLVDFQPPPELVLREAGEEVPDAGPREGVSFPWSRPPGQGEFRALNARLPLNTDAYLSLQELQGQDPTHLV
# T1 sequence (looked up) 2: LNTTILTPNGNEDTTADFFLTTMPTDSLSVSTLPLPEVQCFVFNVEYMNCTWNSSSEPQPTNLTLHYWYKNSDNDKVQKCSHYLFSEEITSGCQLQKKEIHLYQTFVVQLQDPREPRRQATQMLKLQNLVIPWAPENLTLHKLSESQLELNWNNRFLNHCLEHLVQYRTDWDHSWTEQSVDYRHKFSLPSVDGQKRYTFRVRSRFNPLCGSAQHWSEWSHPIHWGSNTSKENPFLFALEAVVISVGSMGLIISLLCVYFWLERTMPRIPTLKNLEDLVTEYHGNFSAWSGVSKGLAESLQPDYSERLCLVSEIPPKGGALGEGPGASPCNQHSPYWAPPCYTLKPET
# assay.comment: cell-based or functional assay
Primed or numbered codes have the meaning given here. Ends that are not written are not given here. PEG10 = NCCOCCOCCOCCOCCOCCOCCOCCOCCOCCOCCC(=O)O; PEG20′ = not defined here
observed.property: EC50 (STAT5, NK92) (nM)

INSERT INTO results (binder, recorded_measurement) VALUES
  ('{PEG 40 kDa linear-PEG20′}-GGWYPCWMAQLGELCDLDGGGGSGGVVCQDWEGVELCWQGG (cysteine pairing not given here; reading uncertain) [PEG-IL-2Rβγc ligand construct PEG-6]', 1.6),
  ('{PEG 40 kDa branched-PEG10}-GGWYPCWMAQLGELCDLDGGGGSGGVVCQDWEGVELCWQGG (not fully specified; printed as -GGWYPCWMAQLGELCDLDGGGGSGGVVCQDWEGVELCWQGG-; cysteine pairing not given here) [PEG-IL-2Rβγc ligand construct PEG-1]', 5.8);
